system: MDA-MB-231 breast cancer cell line; experiment: MTT antiproliferative assay, MDA-MB-231; format: cell-based; settings: Homo sapiens; MDA-MB-231, MTT assay
The entries below are paired with their reported IC50.

Solved entries:
{"columns": ["molecule", "IC50"],
 "data": [
  ["Cc1ccc2c(c1)C(=O)C(=O)N2CCCOC1O[C@@H]2O[C@@]3(C)CC[C@H]4[C@H](C)CC[C@@H]([C@H]1C)[C@@]24OO3 (stereo partly drawn) [Hybrid 6b]", "> 100 µM"],
  ["Cc1ccc2c(c1)C(=NOCc1ccccc1)C(=O)N2CCCCOC1O[C@@H]2O[C@@]3(C)CC[C@H]4[C@H](C)CC[C@@H]([C@H]1C)[C@@]24OO3 (stereo partly drawn) [Hybrid 7m]", "> 100 µM"]
]}

-- ask What IC50 value was documented for this molecule, Cc1ccc2c(c1)C(=NOCc1ccccc1)C(=O)N2CCOC1O[C@@H]2O[C@@]3(C)CC[C@H]4[C@H](C)CC[C@@H]([C@H]1C)[C@@]24OO3 (stereo partly drawn) [Hybrid 7k] ?
-- reply > 100 µM
